# assay.system: T1, Rat plasma Kallikrein (rat, UniProt P14272 391-638, limits assumed)
# T1 construct: domain: catalytic domain; also called rPK; rat PK
# T1 sequence (P14272 391-638 limits assumed): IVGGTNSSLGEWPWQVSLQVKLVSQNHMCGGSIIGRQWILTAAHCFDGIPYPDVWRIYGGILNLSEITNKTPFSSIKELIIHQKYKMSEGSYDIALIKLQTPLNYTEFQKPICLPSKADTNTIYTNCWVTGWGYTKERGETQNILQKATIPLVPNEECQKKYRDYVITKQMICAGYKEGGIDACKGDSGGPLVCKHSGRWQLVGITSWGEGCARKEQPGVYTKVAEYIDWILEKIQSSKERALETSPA
# experimental.details: enzyme inhibition assay; values relative, not absolute
Numbered stars: 1 amine (or outer) side, 2 acyl side, 3 side chain; on linkers, the order of the positions; unused ones are H or OH. Bridge positions count the residues as written; N and C are the ends. Square brackets hold non-standard residues; d marks the D form. Phe(4-guanidino) = N=C(N)Nc1ccc(C[C@H](N)C(=O)O)cc1; TBMB = c1c(C[*:1])cc(C[*:3])cc1C[*:2]; NMeR = CN[C@@H](CCCNC(=N)N)C(=O)O; hArg = N=C(N)NCCCC[C@H](N)C(=O)O
quantity.measured: IC50

binder: Ac-CSFPY[Phe(4-guanidino)]CLHQDLC-NH2 (linker 1-7-13 via TBMB; SMILES CC(=O)N[C@H]1CSCc2cc3cc(c2)CSC[C@H](NC(=O)[C@H](Cc2ccc(NC(=N)N)cc2)NC(=O)[C@H](Cc2ccc(O)cc2)NC(=O)[C@@H]2CCCN2C(=O)[C@H](Cc2ccccc2)NC(=O)[C@H](CO)NC1=O)C(=O)N[C@@H](CC(C)C)C(=O)N[C@@H](Cc1c[nH]cn1)C(=O)N[C@@H](CCC(N)=O)C(=O)N[C@@H](CC(=O)O)C(=O)N[C@@H](CC(C)C)C(=O)N[C@H](C(N)=O)CSC3) [Ac-(06-34-18) Phe2 Tyr4 4GuanPhe5]
quantity.measured: IC50
result: 2.5 nM

binder: Ac-CSFPY[hArg]CLHQDLC-NH2 (linker 1-7-13 via TBMB; SMILES CC(=O)N[C@H]1CSCc2cc3cc(c2)CSC[C@H](NC(=O)[C@H](CCCCNC(=N)N)NC(=O)[C@H](Cc2ccc(O)cc2)NC(=O)[C@@H]2CCCN2C(=O)[C@H](Cc2ccccc2)NC(=O)[C@H](CO)NC1=O)C(=O)N[C@@H](CC(C)C)C(=O)N[C@@H](Cc1c[nH]cn1)C(=O)N[C@@H](CCC(N)=O)C(=O)N[C@@H](CC(=O)O)C(=O)N[C@@H](CC(C)C)C(=O)N[C@H](C(N)=O)CSC3) [Ac-(06-34-18) Phe2 Tyr4 HomoArg5]
quantity.measured: IC50
result: 19.7 nM

binder: Ac-CSFPY[NMeR]CLHQDLC-NH2 (linker 1-7-13 via TBMB; SMILES CC(=O)N[C@H]1CSCc2cc3cc(c2)CSC[C@H](NC(=O)[C@H](CCCNC(=N)N)N(C)C(=O)[C@H](Cc2ccc(O)cc2)NC(=O)[C@@H]2CCCN2C(=O)[C@H](Cc2ccccc2)NC(=O)[C@H](CO)NC1=O)C(=O)N[C@@H](CC(C)C)C(=O)N[C@@H](Cc1c[nH]cn1)C(=O)N[C@@H](CCC(N)=O)C(=O)N[C@@H](CC(=O)O)C(=O)N[C@@H](CC(C)C)C(=O)N[C@H](C(N)=O)CSC3) [Ac-(06-34-18) Phe2 Tyr4 NMeArg5]
quantity.measured: IC50
result: 60.2 nM

binder: Ac-CSFPYRCLHQDLC-NH2 (linker 1-7-13 via TBMB; SMILES CC(=O)N[C@H]1CSCc2cc3cc(c2)CSC[C@H](NC(=O)[C@H](CCCNC(=N)N)NC(=O)[C@H](Cc2ccc(O)cc2)NC(=O)[C@@H]2CCCN2C(=O)[C@H](Cc2ccccc2)NC(=O)[C@H](CO)NC1=O)C(=O)N[C@@H](CC(C)C)C(=O)N[C@@H](Cc1c[nH]cn1)C(=O)N[C@@H](CCC(N)=O)C(=O)N[C@@H](CC(=O)O)C(=O)N[C@@H](CC(C)C)C(=O)N[C@H](C(N)=O)CSC3, also called Ac-(06-34-18) FPYR; Ac-(06-34-18) Phe2 Tyr4) [Ac-06-34-18(TMB)-NH2 Phe2Tyr4]
quantity.measured: IC50
result: 13.8 nM
